Endpoint summary: IC50, system: Receptor tyrosine-protein kinase erbB-2 (Homo sapiens, UniProt P04626), multiple sources combined.

1) CC(C)n1cc(C(=O)Nc2cc(F)c(-c3c[nH]c4ncnc(N)c34)cc2F)c(=O)c(-c2ccc(F)cc2)c1	> 1000 nM
2) CN(C)C/C=C/C(=O)Nc1ccc2ncc(C#N)c(Nc3ccc(F)c(Cl)c3)c2c1	1950 nM
3) CCOC(=O)C(=CNc1ccc2ncnc(Nc3ccc(OCc4cccc(F)c4)c(Cl)c3)c2c1)C(=O)OCC	5050 nM
4) Clc1cc(Nc2ncnc3ccsc23)ccc1-c1nc2ccccc2s1	> 10000 nM
5) Cc1ncc([N+](=O)[O-])n1CCOC(=O)/C=C/c1ccccc1Br	44800 nM
6) COc1cc2ncnc(Nc3ccc(-c4nc5ccccc5s4)c(OC)c3)c2cc1OCCCN1CCN(C)CC1	47 nM
7) COc1cc2cc(-c3ccncc3)cnc2cc1OC	> 10000 nM
8) CC(=O)N1CCN(Cc2ccc(-c3ccc4ncnc(Nc5ccc(OCc6cccc(F)c6)c(Cl)c5)c4c3)o2)CC1	6.8 nM

Entry under review: CS(=O)(=O)CCNC(=O)C1=Cc2c(ncnc2Nc2ccc(Oc3cccc4sccc34)c(Cl)c2)NCC1 . Reported IC50?
30 nM

Cool, now O=C(Nc1ccccc1)N(Cc1ccc(O)cc1)Cc1cc(Cl)cc(Cl)c1O
2210 nM

Cool, now C#Cc1cccc(Nc2ncnc3cc4c(cc23)N(C(=O)/C=C/CN2CCOCC2)CCO4)c1
930 nM

Cool, now CCc1ccc(/C=C2/C(=O)Nc3ccccc32)o1
> 100000 nM

Cool, now CS(=O)(=O)C[C@@H](N)c1ccc(-c2ccc3ncnc(Nc4ccc(OCc5cccc(F)c5)c(Cl)c4)c3c2)o1
2.9 nM

Cool, now CCNCc1cncc(/C=C/c2c[nH]nc2-c2nc(C(F)(F)F)c[nH]2)c1
> 100000 nM

Cool, now Cc1cccc(CN(Cc2ccc(F)cc2)C(=S)Nc2ccccc2)c1O
15700 nM

Cool, now COc1ccc(/C=C2\C(=O)Nc3ccccc32)cc1C(C)(C)C
13200 nM
